From: paper PMC4534092

System: UniProt:P17952 | Read-out: IC50
Sequence (P17952 whole entry): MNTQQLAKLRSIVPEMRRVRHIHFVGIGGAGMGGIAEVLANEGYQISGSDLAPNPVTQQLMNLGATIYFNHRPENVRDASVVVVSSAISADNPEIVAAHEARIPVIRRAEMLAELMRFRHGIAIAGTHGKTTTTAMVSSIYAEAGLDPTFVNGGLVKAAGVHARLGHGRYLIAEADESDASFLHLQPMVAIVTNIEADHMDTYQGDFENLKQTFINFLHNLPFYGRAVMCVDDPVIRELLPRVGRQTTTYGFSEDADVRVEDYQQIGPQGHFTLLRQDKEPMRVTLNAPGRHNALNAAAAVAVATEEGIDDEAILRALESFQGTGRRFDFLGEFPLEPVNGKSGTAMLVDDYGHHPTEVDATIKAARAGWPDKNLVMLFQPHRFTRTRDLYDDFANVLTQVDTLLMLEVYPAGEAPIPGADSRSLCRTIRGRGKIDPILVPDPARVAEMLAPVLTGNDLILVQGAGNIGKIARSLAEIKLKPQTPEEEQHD
observationType: IC50 (µM)

>  <compound>
COc1ccc2cc(C(C)C(=O)NC3C(=O)N4C3SC(C)(C)C4C(=O)O)ccc2c1 (centres unmarked)

>  <observationType>
IC50

>  <valueObserved>
12.5

$$$$
>  <compound>
Nc1ncnc2c1ncn2[C@@H]1O[C@H](COP(=O)(O)OP(=O)(O)CP(=O)(O)O)[C@@H](O)[C@H]1O

>  <observationType>
IC50

>  <valueObserved>
17

$$$$
